system: hGYS1 enzyme (recombinant hGYS1/GN1 protein) (Homo sapiens (Human))
assay_method_text: GYS1 coupled enzyme assay (PK/LDH)
assay_context: hGYS1/GN1 50 nM, UDP-Glucose 0.8 mM, G6P 1 mM; geometric mean of at least 2 runs
readout_label: IC50 (nM)

Cc1cnn(C(C)C(=O)N2C[C@H](F)C[C@H]2C(=O)N[C@@H](c2ccccc2)c2ccc(C(C)C)cc2)c1 (some centres unmarked) : 318
O=C(N[C@@H](c1ccccc1)c1ccc(C2CC2)c(F)c1)[C@@H]1C[C@@H](F)CN1C(=O)Cc1cnc2ccccn12 : 55
CC(=O)N1CCCC(C)(C(=O)N2C[C@H](F)C[C@H]2C(=O)N[C@@H](c2ccccc2)c2ccc(C(C)C)cc2)CC1 (some centres unmarked) : 449

a = CC(C)c1ccc([C@@H](NC(=O)[C@@H]2C[C@@H](F)CN2C(=O)[C@H](C)NC(=O)N(C)C)c2ccccc2)nc1
b = CN(CC(=O)N1C[C@H](F)C[C@H]1C(=O)N[C@@H](c1ccccc1)c1ccc(C2CC2)c(F)c1)c1cnccn1
Task: Two entries are listed, a and b . Which one carries the higher IC50? Could you answer with the label of the item you picked?
Output: a

====

system: hGYS1 enzyme (recombinant hGYS1/GN1 protein) (Homo sapiens (Human), UniProt P13807)
Sequence (P13807 whole entry): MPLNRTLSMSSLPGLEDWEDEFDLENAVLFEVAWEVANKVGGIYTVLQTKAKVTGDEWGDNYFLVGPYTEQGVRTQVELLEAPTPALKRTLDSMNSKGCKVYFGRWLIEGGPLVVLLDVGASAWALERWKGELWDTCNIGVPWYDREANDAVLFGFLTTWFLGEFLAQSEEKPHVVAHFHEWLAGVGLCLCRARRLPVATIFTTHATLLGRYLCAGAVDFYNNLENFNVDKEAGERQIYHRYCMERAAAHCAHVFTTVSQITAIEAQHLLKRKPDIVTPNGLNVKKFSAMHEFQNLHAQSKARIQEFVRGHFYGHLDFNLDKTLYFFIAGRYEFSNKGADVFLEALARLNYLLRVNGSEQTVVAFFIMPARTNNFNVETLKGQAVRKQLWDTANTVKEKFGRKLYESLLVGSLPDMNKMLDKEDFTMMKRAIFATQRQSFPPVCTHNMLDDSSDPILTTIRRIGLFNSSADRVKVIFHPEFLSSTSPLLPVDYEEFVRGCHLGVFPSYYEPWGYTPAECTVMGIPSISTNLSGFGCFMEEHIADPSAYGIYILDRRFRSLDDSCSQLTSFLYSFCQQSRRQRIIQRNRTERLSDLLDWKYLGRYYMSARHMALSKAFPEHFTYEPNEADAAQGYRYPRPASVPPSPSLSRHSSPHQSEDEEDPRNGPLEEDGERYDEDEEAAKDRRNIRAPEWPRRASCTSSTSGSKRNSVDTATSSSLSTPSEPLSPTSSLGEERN
Sequence (P46976 whole entry partner): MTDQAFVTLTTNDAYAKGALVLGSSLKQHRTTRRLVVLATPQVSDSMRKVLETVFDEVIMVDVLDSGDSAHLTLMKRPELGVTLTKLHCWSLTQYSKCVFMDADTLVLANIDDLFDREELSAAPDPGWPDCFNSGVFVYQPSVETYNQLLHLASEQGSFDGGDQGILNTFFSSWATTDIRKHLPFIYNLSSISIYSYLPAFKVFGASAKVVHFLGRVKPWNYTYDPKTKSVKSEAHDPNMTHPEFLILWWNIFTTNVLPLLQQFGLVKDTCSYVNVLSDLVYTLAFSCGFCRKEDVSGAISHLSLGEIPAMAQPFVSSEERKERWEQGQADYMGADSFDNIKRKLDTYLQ
assay_method_text: GYS1 coupled enzyme assay (PK/LDH)
assay_context: hGYS1/GN1 50 nM, UDP-Glucose 0.8 mM, G6P 1 mM; geometric mean of at least 2 runs
pIC50: −log10 of the molar value.
readout_label: pIC50

Example entries begin here.
Cc1nccc(NCC(=O)N2C[C@H](F)C[C@H]2C(=O)N[C@@H](c2ccccc2)c2ccc(C3CC3)c(F)c2)n1 : 7.66
CC(C)c1ccc([C@@H](NC(=O)[C@@H]2C[C@@H](F)CN2C(=O)CN2CCOC2=O)c2ccccc2)cc1 : 7.02
CC(=O)N1CCC[C@H]1C(=O)N[C@@H](c1ccccc1)c1ccc(C(C)C)cn1 : 5.88

I = Cc1cc(CC(=O)N2C[C@H](F)C[C@H]2C(=O)N[C@@H](c2ccccc2)c2ccc(C(C)C)cc2)[nH]n1
II = CC(C)c1ccc([C@@H](NC(=O)[C@@H]2C[C@@H](F)CN2C(=O)C(C)n2ccnc2)c2ccccc2)cc1 (stereo partly drawn)
Task: Compare pIC50: is it lower for I or for II ? Could you answer with the label of the item you picked?
Output: II

====

Below: a set of entries, each annotated with reported pIC50.
Tested on: hGYS1 enzyme / glycogen synthesis in HeLa cells
assay_method_text: GYS1 cell based assay (glycogen synthesis, Glucose-glo)
Set-up: species or system human
assay_context: 24 h incubation, 20 mM glucose, geometric mean of at least 2 runs
pIC50: −log10 of the molar value.

CC(C)c1ccc(C(NC(=O)[C@@H]2C[C@@H](F)CN2C(=O)Cc2cnn[nH]2)c2cccc(-c3cnco3)c2)nc1F (single isomer, unassigned) [Compound 693] : 5.94
CC(C)c1ccc(C(NC(=O)[C@@H]2C[C@@H](F)CN2C(=O)Cc2cnn[nH]2)c2ccc3cn[nH]c3c2)nc1F (single isomer, unassigned) [Compound 633] : < 4.52

Task: Using the record for O=C(NC(c1ccccc1)c1ccc(C2CC2)cn1)[C@@H]1C[C@@H](F)CN1C(=O)Cc1cnn[nH]1 (single isomer, unassigned) , report its pIC50.
Output: < 5.00
